In this section, each of the compounds is paired with its reported PB.
Molecular target: Alpha-1-acid glycoprotein 1 (Homo sapiens, UniProt P02763)
Sequence (P02763 whole entry): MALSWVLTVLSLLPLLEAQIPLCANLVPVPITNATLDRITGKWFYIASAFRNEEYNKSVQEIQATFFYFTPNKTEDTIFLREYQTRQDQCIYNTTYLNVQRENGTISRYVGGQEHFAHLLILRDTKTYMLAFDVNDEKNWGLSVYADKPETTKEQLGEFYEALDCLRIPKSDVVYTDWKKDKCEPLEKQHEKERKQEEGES
Assay: Binding affinity to human alpha-1-AGP at 1 uM measured after 4 hrs by equilibrium dialysis method relative to control
Assay type: ADME
Settings: isolated protein, 4 h, 1 µM
Remember to quote the unit after the number.

The cases that follow already have their PB on record.
LINE_NOTATION	PB
CC(C)(O)c1cn(-c2ccc(-c3cc(F)c(CO)c(S(C)(=O)=O)c3)cc2)c(C(C)(C)c2cccc(F)c2Cl)n1	87.6%
CC(C)(O)c1cn(-c2ccc(-c3cc(F)c(CO)c(S(C)(=O)=O)c3)cc2)c(C(C)(C)c2ccccc2Cl)n1	86.6%

Name the recorded PB of the item CC(C)(O)c1cn(-c2ccc(-c3cc(F)c(CO)c(S(C)(=O)=O)c3)cc2F)c(C(C)(C)c2c(Cl)cccc2Cl)n1 in your answer.
97.3%

Name the recorded PB of the item CC(C)(O)c1cn(-c2ccc(-c3ccc(CO)c(S(C)(=O)=O)c3)cc2)c(C(C)(C)c2ccccc2Cl)n1 in your answer.
90.2%

Data provenance: ChEMBL document CHEMBL3867488
